- measuredTarget: Galectin-3 (Homo sapiens, UniProt P17931)
- Sequence (P17931 whole entry): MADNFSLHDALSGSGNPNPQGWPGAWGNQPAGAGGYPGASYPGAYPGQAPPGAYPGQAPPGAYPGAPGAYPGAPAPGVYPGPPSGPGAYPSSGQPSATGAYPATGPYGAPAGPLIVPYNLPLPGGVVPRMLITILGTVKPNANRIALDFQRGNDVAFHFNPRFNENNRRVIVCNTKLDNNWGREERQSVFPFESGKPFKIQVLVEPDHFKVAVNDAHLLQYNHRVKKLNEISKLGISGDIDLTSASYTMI
- assayProtocol: Fluorescence anisotropy assay, inhibition of galectin / fluorescein tagged saccharide probe interaction
measuredEndpoint: Kd (nM)

INSERT INTO measurements (compound, measuredtarget, measuredendpoint, measuredvalue) VALUES
  ('O=C(O)CO[C@@H]1[C@@H](n2cc(-c3cc(F)c(F)c(F)c3)nn2)[C@@H](O)[C@@H](CO)O[C@@H]1Sc1ccc(Cl)c(Cl)c1', 'Galectin-3 (Homo sapiens, UniProt P17931)', 'Kd', 17),
  ('OC[C@H]1O[C@H](Sc2cncc(Br)c2)[C@H](OCc2cnco2)[C@@H](n2cc(-c3cc(F)c(F)c(F)c3)nn2)[C@H]1O', 'Galectin-3 (Homo sapiens, UniProt P17931)', 'Kd', 130),
  ('O=C(O)CO[C@@H]1[C@@H](n2cc(-c3cc(F)c(F)c(F)c3)nn2)[C@@H](O)[C@@H](CO)O[C@@H]1Sc1cncc(Br)c1', 'Galectin-3 (Homo sapiens, UniProt P17931)', 'Kd', 7),
  ('OCC1O[C@H](Sc2ccc(Cl)c(Cl)c2)C(OCc2nnn[nH]2)C(n2cc(-c3cc(F)c(F)c(F)c3)nn2)[C@H]1O (stereo in doubt)', 'Galectin-3 (Homo sapiens, UniProt P17931)', 'Kd', 8),
  ('O=S(=O)(O)O[C@@H]1[C@@H](n2cc(-c3cc(F)c(F)c(F)c3)nn2)[C@@H](O)[C@@H](CO)O[C@@H]1Sc1cncc(Br)c1', 'Galectin-3 (Homo sapiens, UniProt P17931)', 'Kd', 3),
  ('OC[C@H]1O[C@H](Sc2cncc(Br)c2)[C@H](OCc2ncc[nH]2)[C@@H](n2cc(-c3cc(F)c(F)c(F)c3)nn2)[C@H]1O', 'Galectin-3 (Homo sapiens, UniProt P17931)', 'Kd', 7),
  ('OCC1O[C@H](Sc2ccc(Cl)c(Cl)c2)C(OCc2nnn[nH]2)C(n2cc(-c3cc(F)c(Cl)c(F)c3)nn2)[C@H]1O (stereo in doubt)', 'Galectin-3 (Homo sapiens, UniProt P17931)', 'Kd', 64),
  ('CC(OC1C(n2cc(-c3cc(F)c(F)c(F)c3)nn2)[C@@H](O)C(CO)O[C@@H]1Sc1cncc(Br)c1)C(=O)O (single isomer, unassigned; diastereomer 1) [Example 27]', 'Galectin-3 (Homo sapiens, UniProt P17931)', 'Kd', 15),
  ('CN(C)C(=O)c1ccc(Cl)cc1S[C@H]1OC(CO)[C@H](O)C(n2cc(-c3cc(F)c(F)c(F)c3)nn2)C1OCc1cscn1 (stereo partly shown)', 'Galectin-3 (Homo sapiens, UniProt P17931)', 'Kd', 14),
  ('OC[C@H]1O[C@H](Sc2cncc(Br)c2)[C@H](OCc2ccon2)[C@@H](n2cc(-c3cc(F)c(F)c(F)c3)nn2)[C@H]1O', 'Galectin-3 (Homo sapiens, UniProt P17931)', 'Kd', 32),
  ('OCC1O[C@H](Sc2ccc(Cl)c(Cl)c2)C(OCc2cocn2)C(n2cc(-c3cc(F)c(Cl)c(F)c3)nn2)[C@H]1O (stereo partly shown)', 'Galectin-3 (Homo sapiens, UniProt P17931)', 'Kd', 87),
  ('CN(C)C(=O)c1ccc(Cl)cc1S[C@H]1OC(CO)[C@H](O)C(n2cc(-c3cc(F)c(F)c(F)c3)nn2)C1OCc1nnn[nH]1 (stereo partly shown)', 'Galectin-3 (Homo sapiens, UniProt P17931)', 'Kd', 4),
  ('OC[C@H]1O[C@H](Sc2cncc(Br)c2)[C@H](OCc2cocn2)[C@@H](n2cc(-c3cc(F)c(F)c(F)c3)nn2)[C@H]1O', 'Galectin-3 (Homo sapiens, UniProt P17931)', 'Kd', 24);
